Biological target: PERK (Homo sapiens, UniProt Q9NZJ5)
Sequence (Q9NZJ5 30-1116): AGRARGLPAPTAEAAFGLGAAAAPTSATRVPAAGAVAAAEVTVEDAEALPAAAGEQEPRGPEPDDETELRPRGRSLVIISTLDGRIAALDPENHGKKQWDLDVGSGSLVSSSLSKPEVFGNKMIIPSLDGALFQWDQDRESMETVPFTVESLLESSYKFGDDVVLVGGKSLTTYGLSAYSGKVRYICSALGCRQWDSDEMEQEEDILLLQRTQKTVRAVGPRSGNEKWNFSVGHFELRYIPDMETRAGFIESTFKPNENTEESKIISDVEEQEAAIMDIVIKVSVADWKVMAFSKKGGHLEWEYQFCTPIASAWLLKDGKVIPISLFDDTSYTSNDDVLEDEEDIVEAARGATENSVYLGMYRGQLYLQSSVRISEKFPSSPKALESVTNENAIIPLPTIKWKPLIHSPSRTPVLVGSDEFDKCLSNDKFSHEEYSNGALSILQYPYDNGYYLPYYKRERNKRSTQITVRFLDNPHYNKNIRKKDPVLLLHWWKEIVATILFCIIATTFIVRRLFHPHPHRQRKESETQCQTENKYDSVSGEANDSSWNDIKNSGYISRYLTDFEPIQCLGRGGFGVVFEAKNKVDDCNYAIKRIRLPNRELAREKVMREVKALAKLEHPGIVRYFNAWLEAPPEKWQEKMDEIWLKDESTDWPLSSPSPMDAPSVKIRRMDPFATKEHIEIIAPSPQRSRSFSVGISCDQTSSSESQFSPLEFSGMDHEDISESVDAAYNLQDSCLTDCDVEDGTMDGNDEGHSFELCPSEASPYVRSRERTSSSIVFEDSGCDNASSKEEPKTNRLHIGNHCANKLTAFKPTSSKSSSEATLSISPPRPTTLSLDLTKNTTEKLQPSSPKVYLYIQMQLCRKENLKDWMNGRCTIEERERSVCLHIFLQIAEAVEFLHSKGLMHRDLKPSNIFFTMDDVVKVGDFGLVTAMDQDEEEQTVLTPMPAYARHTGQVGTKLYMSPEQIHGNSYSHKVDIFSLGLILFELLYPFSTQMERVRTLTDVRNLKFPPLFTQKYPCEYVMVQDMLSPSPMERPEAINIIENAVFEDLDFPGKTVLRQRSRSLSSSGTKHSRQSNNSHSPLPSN
Test: PERK enzyme assay (HTRF)
Type: biochemical
Conditions: PERK Enzyme (500 μM ATP) IC50; at least one experimental run; read-out: PERK Activity
endpoint: IC50

For orientation, consider the following solved cases.
{"compound": "CN1C(=O)N(c2ccc(-c3cn(C)c4ncnc(N)c34)c(F)c2)CC1c1cccc(F)c1F (single isomer, unassigned) [Example 77]", "observed value": "< 100 nM"}
{"compound": "CCN1C(=O)N(c2ccc(-c3cn(C)c4ncnc(N)c34)c(F)c2)CC1c1cc(F)cc(C(F)(F)F)c1 (single isomer, unassigned) [Example 88]", "observed value": "100 to 1000 nM"}

Documented IC50 of CCN1C(=O)N(c2ccc(-c3c(C)n(C)c4ncnc(N)c34)c(F)c2)CC1c1ccc(F)cc1F (stereo not shown) : 100 to 1000 nM

Value of IC50 reported for the compound CCN1C(=O)N(c2ccc(-c3cn(C)c4nc(C)nc(N)c34)c(F)c2)CC1c1cc(F)ccc1F (single isomer, unassigned) [Example 45] is > 1000 nM

// IC50 lookup, compound = Cc1cccc(C2CN(c3ccc(-c4cn(C)c5ncnc(N)c45)c(F)c3)C(=O)N2C)c1 (stereo not shown) , result: 100 to 1000 nM

GET /value?item= CN1C(=O)N(c2ccc(-c3cn(C)c4ncnc(N)c34)c(F)c2)CC1c1ccc(F)c(F)c1 (single isomer, unassigned) [Example 115] &field=IC50 returns < 100 nM

Reported IC50 for CN1C(=O)N(c2ccc(-c3cn(C)c4ncnc(N)c34)c(F)c2)CC1C1CCCCC1 (stereo not shown) [Example 58] was < 100 nM
